system: RAW264.7; experiment: Antiinflammatory activity in mouse RAW264.7 cells assessed as inhibition of LPS-induced NO production at 40 uM relative to control; format: functional
Metric name: inhibition at 40 µM (%)
The reply should contain only the number, in %.

>>> result_number("C[C@]12CC(=O)[C@H]3C[C@@]1(O[C@@H]1O[C@H](CO)[C@@H](O)[C@H](O)[C@H]1O)O[C@@H](O2)[C@H]3COC(=O)c1ccccc1")
34.9
>>> result_number("CC(C)=CCC/C(C)=C/C(=O)O[C@@H]1O[C@H](CO[C@@H]2O[C@@H](C)[C@H](O)[C@@H](O)[C@H]2O)[C@@H](O)[C@H](O)[C@H]1O")
29.2
>>> result_number("CC1=CC(=O)[C@H]2C[C@]1(O[C@@H]1O[C@H](COC(=O)c3ccccc3)[C@@H](O)[C@H](O)[C@H]1O)C2(C)CO (some centres undefined)")
18.3

// moving on: another record for inhibition at 40 µM
// inhibition at 40 µM value for C[C@]1(C(=O)OC[C@H]2O[C@@H](O[C@]34CC5C3(COC(=O)c3ccccc3)[C@H]3O[C@]5(O)C[C@]4(C)O3)[C@H](O)[C@@H](O)[C@@H]2O)[C@@H]2CC[C@@H](CO)[C@H]1C2 : 22.1

---

system: RAW264.7; assay: Antiinflammatory activity in mouse RAW264.7 cells assessed as inhibition of LPS-induced NO production at 60 uM relative to control; assay type: functional
Kind request: treat 40% as inclusive, so inhibition at 60 µM at 40% or higher is satisfied, anything lower is not satisfied.

Record excerpt, results attached:
>>> group_label("CC1(C)[C@@H]2C[C@H]1[C@@H](O)C[C@@H]2C(=O)OC[C@H]1O[C@@H](O[C@]23CC4C2(COC(=O)c2ccccc2)[C@H]2O[C@]4(O)C[C@]3(C)O2)[C@H](O)[C@@H](O)[C@@H]1O")
"not satisfied"
>>> group_label("C[C@]12CC(=O)[C@H]3C[C@@]1(O[C@@H]1O[C@H](CO)[C@@H](O)[C@H](O)[C@H]1O)O[C@@H](O2)[C@H]3COC(=O)c1ccccc1")
"satisfied"
>>> group_label("CC1=CC(=O)[C@H]2C[C@]1(O[C@@H]1O[C@H](COC(=O)c3ccccc3)[C@@H](O)[C@H](O)[C@H]1O)C2(C)CO (stereo not given in full)")
"not satisfied"

For the next question, use this compound.
API: above_or_equal(metric=inhibition at 60 µM, cutoff=40%) for item CC1=CC(=O)[C@H]2C[C@@]1(O[C@@H]1O[C@H](CO)[C@@H](O)[C@H](O)[C@H]1O)C2(C)COC(=O)c1ccccc1 (stereo not given in full)
satisfied

---

tested on: RAW264.7; assay: Antiinflammatory activity in mouse RAW264.7 cells assessed as inhibition of LPS-induced NO production at 40 uM relative to control; assay type: functional
Metric name: inhibition at 40 µM (%)
Give just the number in %; leave the unit off.

Hey, RAW264.7 data for CC1=CC(=O)[C@H]2C[C@@]1(O[C@@H]1O[C@H](CO)[C@@H](O)[C@H](O)[C@H]1O)C2(C)COC(=O)c1ccccc1 (stereo partly drawn) : inhibition at 40 µM came out at 26

Param item: CC1(C)[C@@H]2C[C@H]1[C@@H](O)C[C@@H]2C(=O)OC[C@H]1O[C@@H](O[C@]23CC4C2(COC(=O)c2ccccc2)[C@H]2O[C@]4(O)C[C@]3(C)O2)[C@H](O)[C@@H](O)[C@@H]1O ; param system: RAW264.7; output inhibition at 40 µM: 27.5

// returns inhibition at 40 µM for CC(C)c1ccc(CO[C@@H]2O[C@H](CO[C@@H]3O[C@@H](C)[C@H](O)[C@@H](O)[C@H]3O)[C@@H](O)[C@H](O)[C@H]2O)cc1 with RAW264.7; value = 31.1
